In this section, each of the molecules is paired with its reported melting point.

Compound string	melting point
Cc1cc(C#N)ccc1-c1ccc(Oc2nc(Nc3ccc(C#N)cc3)nc3ccsc23)cc1C	274.3 to 275.8 °C
Cc1cc(-c2ccc(Oc3nc(Nc4ccc(C#N)cc4)nc4ccsc34)c(F)c2)ccc1C#N	252.5 to 254.2 °C
N#Cc1ccc(Nc2nc(Oc3ccc(-c4ccc(C#N)c(Cl)c4)cc3)c3sccc3n2)cc1	246.3 to 247.7 °C
Cc1cc(-c2ccc(Oc3nc(Nc4ccc(C#N)cc4)nc4ccsc34)c(C)c2)ccc1C#N	259.4 to 261.1 °C
Cc1cc(C#N)ccc1-c1ccc(Oc2nc(Nc3ccc(C#N)cc3)nc3ccsc23)cc1	278.4 to 279.5 °C
